Quick reference for MAX MFI among some binders
target or test system: T1, human Claudin18.2 (CLDN18.2) (human, UniProt P56856 1-261)
T1 construct: the cell line is named under assay; also called human Claudine18.2; hClaudin18.2
assay explanation: FACS on GAXC031 cells, antibody at 50 µg/ml
Just the number, please.

| binder | quantitative readout |
| --- | --- |
| chAb06 (antibody, V domains shown) VH: EVQLVASGGGLVKPGGSLKLSCAASGITFRSYAMSWVRQTPEKRLEWVATITDGGSYIFYPDNVKGRFTISGDHAKNNLYLQMSHLKSEDTALYFCVRLYYGNSFAYWGQGTLVTVSA VL: DIVMTQSPSSLTVTAGEKVTLNCKSSQSLFNSGNQKNYLTWYQQKPGQPPKLLIYWASTRESGVPDRFTGSGSGTDFTLTFSSVQAEDLAVYYCQNAYIYPFTFGSGTKLEIK | 5460 |
| chAb25 (antibody, V domains shown) VH: EAQLQQSGPELVKPGASVKIFCKASGYTFTDYYINWVKQSHGKSLEWIGDINPNNGGTTYNQKFKGKATLTVDKSSSTASMELRRLTSEDSSVYYCARRDAMDYWGQGTSVTVSS VL: DIVMTQSQKFMSTTVGDRVSITCTASQNVGPAVAWYQQKPGQSPKLLIYSASRRFTGVPDRFTGSGSGTVFTLTINNVQSEDLADYFCQQYISYPLTFGAGTKLELK | 3020 |

For the binder shown here, chAb05 (antibody, V domains shown) VH: DVKLVESGEDLVKPGGSLKLSCAASGFTFSNYAMSWVRQTPEKRLEWVAYVSSGGDYIYYADTVKGRFIISRDNARNTLYLQMNSLRSEDTAMYYCARVYFGNSLDYWGQGTTLTVSS VL: DIVMTQSPSSLTVTAGEKVTLSCKSSQSLLNGGNQKNYLTWYQQRPGQPPKLLIYWASTRESGVPDRFTGSGSGTDFTLIISSVQAEDLAVYYCQNDYYYPWTFGGGTKLEIK , give the reported MAX MFI.
4600

Sourced from patent US20230095569A1
